Test system: Salmonella typhimurium
Experiment: Antimicrobial activity against multidrug-resistant Salmonella enterica serovar Typhimurium BN10055 harboring plasmid encoded RamR gene, GyrA S83Y mutant gene by agar doubling dilution method
Assay type: functional, Salmonella enterica subsp. enterica serovar Typhimurium
Can you tell me MIC for the items I'm about to list?
Give bare numbers, in mg/L.

Incoming: // returns reported MIC for input CS(=O)(=O)c1ccc([C@@H](O)[C@@H](CF)NC(=O)C(Cl)Cl)cc1 [FLORFENICOL]
Outgoing: 128

Incoming: Suppose we examine the compound O=C(O)c1cn(C2CC2)c2cc(N3CCNCC3)c(F)cc2c1=O [CIPROFLOXACIN] ; what MIC value has been reported?
Outgoing: 1

Incoming: Value lookup for MIC; key = CN(C)[C@@H]1C(O)=C(C(N)=O)C(=O)[C@@]2(O)C(O)=C3C(=O)c4c(O)cccc4[C@@](C)(O)[C@H]3C[C@@H]12 [TETRACYCLINE]
Outgoing: 256

Incoming: What value of measured MIC is listed for O=C(N[C@H](CO)[C@H](O)c1ccc([N+](=O)[O-])cc1)C(Cl)Cl [CHLORAMPHENICOL] ?
Outgoing: 1020

Would you kindly look at the next entry?
Incoming: Param item = CC1CCc2cc(F)cc3c(=O)c(C(=O)O)cn1c23 (stereo unspecified) [FLUMEQUINE] ; retrieve measured MIC.
Outgoing: 64
